Field: z-score. Provide a value for each of the compounds that follow.
- method.description: JC-1 mitochondrial signal, unstimulated MM1S myeloma – cell-based, JC-1 fluorescence, 24 h, 100 nL compound, profiling panel (AID 1170); also: test concentration not given here
- condition.set: MM1S mitochondrial potential, higher = more signal

Short answer for COCC(=C=CC[C@H](O)c1ccccc1OCCO)CCO : z-score was -0.654

Short answer for CO[C@H]1O[C@H](CO)[C@@H](OC(=O)Nc2ccc(Oc3ccccc3)cc2)[C@H](OC(=O)Nc2ccc3c(c2)OCO3)[C@@H]1OC(=O)Nc1ccc2c(c1)OCO2 : z-score was -0.751

Short answer for O=C1OCCC=C[C@H]2OC34C=CCN(Cn5nnc6ccccc65)C(=O)[C@H]3N(CCO)C(=O)[C@@H]4C12 (stereo partly specified) : z-score was -0.0431

Short answer for O=C(O)[C@H](Cc1ccccc1)n1cc(-c2ccccc2)nn1 : z-score was 0.348

Short answer for NCCCCCCNC(=O)[C@H]1C[C@H]2C(=O)N[C@@H](Cc3ccccc3)C(=O)N2[C@H]1c1cccc(OCCO)c1 : z-score was -0.531

Short answer for CCCCN1CC=CC23O[C@@H]4/C=C\CCCOC(=O)C4[C@H]2C(=O)N(CCCO)[C@@H]3C1=O (stereo partly specified) : z-score was 0.597

Short answer for Cc1ccc(/C=C/C=O)cc1 : z-score was 0.427

Short answer for CC1CC/C=C\[C@H]2OC34C=CCN(Cn5nnc6ccccc65)C(=O)[C@H]3N(CCCCCO)C(=O)[C@@H]4C2C(=O)O1 (stereo partly specified) : z-score was -0.124

Short answer for COCCCNC(=O)[C@@H]1c2ccccc2C(=O)N(Cc2ccccc2)[C@H]1c1ccc(CO)cc1 : z-score was 0.282

Short answer for O=C1O[C@@H](c2ccccc2)[C@@H](c2ccccc2)N2[C@@H](c3ccc(OCCO)cc3)[C@]3(C(=O)Nc4ccc(C#CC5=CCCCC5)cc43)[C@@H](C(=O)N3CCCCCCC3)[C@H]12 : z-score was -1.14

Short answer for C=CCN(Cc1ccccc1)C(=O)C(c1cccs1)N(C(=O)/C=C\C(=O)O)c1ccc(CCOCCO)cc1 (stereo unspecified) : z-score was -1.06

Short answer for CC(C)[Si](C#C[Si](C(C)C)(C(C)C)C(C)C)(O[C@H](C)c1cn(Cc2ccccc2)nn1)C(C)C : z-score was -0.542

Short answer for O=C1OCCC=C[C@H]2OC34C=CCN(CCN5CCOCC5)C(=O)[C@H]3N(CCCCCO)C(=O)[C@@H]4C12 (stereo partly specified) : z-score was -0.355

Short answer for NCCCCCNC(=O)[C@H]1C[C@H]2C(=O)N3CCC[C@H]3C(=O)N2[C@H]1c1ccc(O)cc1 : z-score was 0.286

Short answer for C=CCN1C(=O)[C@]2(O[C@H](CCO)[C@@H]([Si](C)(C)c3ccc(OC)cc3)[C@@H]2C)c2cc(N(C=O)c3ccccc3)ccc21 : z-score was -2.23

Short answer for CCOC(=O)C[C@H]1[C@H](OC(=O)c2ccc(C(=O)c3ccccc3)cc2)[C@@H](NC(=O)c2ccccc2)c2cc(OCCCO)ccc2N1C(=O)c1ccccc1 : z-score was 0.0929
